System: K562
Test: NCI tumour cell line growth inhibition, 48 h
Active and inactive are the calls of the source. Cut-off read from the data, not from the text of the source: active = GI50 up to about 1.1 µM and inactive = higher.
GI50: recorded values
PROPERTY MEASURED: GI50

# COMPOUND, PROPERTY MEASURED, OBSERVED
records = [
    ("COc1ccc2c(c1)O[C@H]1c3ccc(O)cc3OC[C@@H]21", "GI50", "30.1 µM (inactive)"),
    ("COc1cc(C=O)cc(/C=N/c2ccc(S(N)(=O)=O)cc2)c1O", "GI50", "47 µM (inactive)"),
    ("O=c1[nH]nc2ccccc2c1Cc1ccccc1", "GI50", "> 100 µM (inactive)"),
    ("C[n+]1c(-c2ccc(/C=N/NC(=O)c3ccc(C(=O)N/N=C/c4ccc(-c5cn6ccccc6[n+]5C)cc4)cc3)cc2)cn2ccccc21", "GI50", "> 100 µM (inactive)"),
    ("CC(=O)OC12C=CC(=O)N1c1ccccc1C(=O)O2 (stereo not given)", "GI50", "> 100 µM (inactive)"),
    ("C=CCOn1c(C=C)nc2ccc(C)cc21", "GI50", "20.6 µM (inactive)"),
    ("C[C@]12CCC(=O)C=C1CC[C@@H]1C2CC[C@]2(C)NC(=O)C(C#N)CC12 (stereo not given in full)", "GI50", "> 100 µM (inactive)"),
    ("COc1ccc(CNc2nc3cc(C(F)(F)F)ccc3nc2C(=O)O)cc1", "GI50", "24.7 µM (inactive)"),
    ("CCC1C(=O)C[C@H]2[C@@H]3C(O)CC4=CC(=O)CC[C@]4(C)[C@H]3CC[C@]12C (stereo not given in full)", "GI50", "> 50 µM (inactive)"),
    ("CC(C)=CCC/C(C)=C/CC/C(C)=C/CC(CO)N(C)CC/C=C(\\C)CCC=C(C)C (stereo not given)", "GI50", "1.6 µM (inactive)"),
]

====

Test system: MDA-MB-435
Assay: NCI tumour cell line growth inhibition, 48 h
The source made the active and inactive calls. No stated cut-off is given here; in the data, active = GI50 up to about 1.1 µM and inactive = higher.
Outcome codes: active, inactive

# COMPOUND, LABEL CLASS
rows = [
    ("O=C(O)c1cccc(C(=O)O)c1[S+]([O-])Cc1ccccc1 (centres undefined)", "inactive"),
    ("COc1cccc(C2c3cc4c(cc3OC(NNS(=O)(=O)c3ccc(C)cc3)C2C)OCO4)c1OC (centres undefined)", "inactive"),
    ("Cc1ccc(/C=N/Nc2nc3ccccc3s2)s1", "inactive"),
    ("O=C(c1ccccc1)c1c(-c2ccccc2)[nH]n(-c2ccc([N+](=O)[O-])cc2)c(=O)c1=O", "inactive"),
    ("CC(C)/C(=N\\[N+](C)(C)C)c1ccccc1", "inactive"),
    ("CC(=O)C(=CNc1c(C)n(C)n(-c2ccccc2)c1=O)C(C)=O", "inactive"),
    ("O=C(NS(=O)(=O)OCC(Cl)(Cl)Cl)SCCC(F)(F)C(F)(F)C(F)(F)C(F)(F)C(F)(F)C(F)(F)F", "inactive"),
    ("CC1C2CC(C(C3C(=O)C4CC3C(C)(C)C4C)C2=O)C1(C)C (centres undefined)", "inactive"),
    ("CCC(C)C1NC(=O)C(NC(=O)C(CC(C)C)N(C)C(=O)[C@@H]2CC(O)CN2C(=O)[C@H](C)O)C(C)OC(=O)[C@H](Cc2ccc(OC)cc2)N(C)C(=O)[C@@H]2CCCN2C(=O)[C@H](CC(C)C)NC(=O)C(C)C(=O)[C@H](C(C)C)OC(=O)CC1O (some centres undefined)", "active"),
    ("C[n+]1c(-c2ccc(/C=N/NC(=O)c3ccc(C(=O)N/N=C/c4ccc(-c5cn6ccccc6[n+]5C)cc4)cc3)cc2)cn2ccccc21", "inactive"),
    ("CN(C)CCCN1C(=O)N(CCCN(C)C)c2c3cc(O)ccc3nc3c([N+](=O)[O-])ccc1c23", "inactive"),
    ("O=C(/C=C/c1ccccc1)Oc1cccc(O)c1", "inactive"),
    ("CCOC(=O)C(SCCO)C(C(=O)OCC)n1ccc(=O)[nH]c1=O (centres undefined)", "inactive"),
    ("CCOC(=O)C(Cl)(NC(=O)c1c(F)c(F)c(F)c(F)c1F)C(F)(F)F (centres undefined)", "inactive"),
    ("Cc1nc2ccccc2c(-n2cccn2)c1CCn1cccn1", "inactive"),
    ("CC(ON1[C@](C)(c2ccccc2)CC[C@@]1(C)c1ccccc1)c1ccccc1 (some centres undefined)", "inactive"),
    ("Nc1ccc(-c2nn3c(COc4ccc(Cl)cc4)nnc3s2)cc1", "inactive"),
    ("O=C(O)c1cc(/N=N/c2ccc([N+](=O)[O-])cc2)ccc1O", "inactive"),
    ("CCOc1cc(NC(C)=O)ccc1C(=O)NN1C(=O)C(Cl)C1c1ccc(O)c(OC)c1 (centres undefined)", "inactive"),
]
